Measured inhibition at 30 min, 1 μM, listed per entry.
Tested target: Cav1.2 (Homo sapiens, UniProt Q13936)
Construct: expressed in transfected cells; host or cells: HEK293 cell line (Xia, et al., 2004) also expressing Kir2.3
Sequence (Q13936 whole entry): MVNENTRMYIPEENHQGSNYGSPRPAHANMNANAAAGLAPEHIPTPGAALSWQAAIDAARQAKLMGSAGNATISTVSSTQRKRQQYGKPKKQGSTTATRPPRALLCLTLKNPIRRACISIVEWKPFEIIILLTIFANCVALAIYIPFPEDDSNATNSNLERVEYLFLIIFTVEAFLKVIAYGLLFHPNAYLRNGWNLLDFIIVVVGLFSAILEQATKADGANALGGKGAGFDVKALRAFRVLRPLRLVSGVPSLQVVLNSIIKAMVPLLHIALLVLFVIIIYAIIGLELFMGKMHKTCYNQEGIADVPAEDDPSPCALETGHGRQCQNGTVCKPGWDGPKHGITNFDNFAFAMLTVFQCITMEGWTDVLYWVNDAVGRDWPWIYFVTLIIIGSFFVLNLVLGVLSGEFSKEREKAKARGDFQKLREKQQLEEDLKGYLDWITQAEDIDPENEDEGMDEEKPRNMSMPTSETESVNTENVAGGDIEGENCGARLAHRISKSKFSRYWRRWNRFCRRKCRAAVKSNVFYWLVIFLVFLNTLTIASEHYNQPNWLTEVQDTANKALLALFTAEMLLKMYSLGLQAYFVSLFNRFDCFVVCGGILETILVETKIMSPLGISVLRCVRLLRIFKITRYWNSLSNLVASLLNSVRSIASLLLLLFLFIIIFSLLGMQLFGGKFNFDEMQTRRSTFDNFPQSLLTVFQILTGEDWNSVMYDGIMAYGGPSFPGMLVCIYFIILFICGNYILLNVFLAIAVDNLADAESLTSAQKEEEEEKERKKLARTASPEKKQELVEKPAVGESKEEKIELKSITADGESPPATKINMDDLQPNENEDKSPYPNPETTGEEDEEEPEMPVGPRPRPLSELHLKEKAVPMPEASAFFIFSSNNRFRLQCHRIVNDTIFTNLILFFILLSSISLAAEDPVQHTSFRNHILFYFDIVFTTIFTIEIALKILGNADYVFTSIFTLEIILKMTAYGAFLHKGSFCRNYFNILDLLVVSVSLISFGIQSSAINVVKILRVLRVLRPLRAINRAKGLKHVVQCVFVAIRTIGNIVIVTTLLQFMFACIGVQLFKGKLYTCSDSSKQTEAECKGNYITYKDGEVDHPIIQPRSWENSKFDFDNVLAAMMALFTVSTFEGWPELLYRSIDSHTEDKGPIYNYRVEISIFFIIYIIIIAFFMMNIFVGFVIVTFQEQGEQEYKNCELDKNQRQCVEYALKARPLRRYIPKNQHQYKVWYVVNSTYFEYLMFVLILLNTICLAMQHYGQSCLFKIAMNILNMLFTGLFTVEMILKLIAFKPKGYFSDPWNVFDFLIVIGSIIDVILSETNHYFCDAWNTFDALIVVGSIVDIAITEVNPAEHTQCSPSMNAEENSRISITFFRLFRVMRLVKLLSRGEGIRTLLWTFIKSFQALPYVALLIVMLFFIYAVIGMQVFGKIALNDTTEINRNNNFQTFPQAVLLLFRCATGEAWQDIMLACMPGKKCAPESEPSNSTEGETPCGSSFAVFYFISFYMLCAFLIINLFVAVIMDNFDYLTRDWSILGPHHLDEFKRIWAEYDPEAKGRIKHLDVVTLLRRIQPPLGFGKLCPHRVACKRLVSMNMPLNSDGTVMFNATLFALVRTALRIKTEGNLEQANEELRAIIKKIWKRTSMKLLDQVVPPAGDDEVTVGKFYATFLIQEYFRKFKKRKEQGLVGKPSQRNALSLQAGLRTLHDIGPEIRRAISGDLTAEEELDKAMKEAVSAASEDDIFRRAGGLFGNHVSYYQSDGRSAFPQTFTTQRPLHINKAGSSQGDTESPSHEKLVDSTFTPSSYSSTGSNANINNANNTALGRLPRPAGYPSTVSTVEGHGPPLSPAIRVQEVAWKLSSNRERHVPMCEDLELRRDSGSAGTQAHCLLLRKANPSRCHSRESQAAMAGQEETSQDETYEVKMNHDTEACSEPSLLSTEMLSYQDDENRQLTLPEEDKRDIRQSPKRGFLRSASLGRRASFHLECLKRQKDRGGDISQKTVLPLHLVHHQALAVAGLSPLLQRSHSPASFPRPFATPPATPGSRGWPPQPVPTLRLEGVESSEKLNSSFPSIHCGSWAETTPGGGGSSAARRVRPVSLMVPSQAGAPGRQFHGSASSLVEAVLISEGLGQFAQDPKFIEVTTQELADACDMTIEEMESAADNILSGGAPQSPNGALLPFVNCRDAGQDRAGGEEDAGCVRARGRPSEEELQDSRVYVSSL
Sequence (P54289 25-946 partner limits assumed): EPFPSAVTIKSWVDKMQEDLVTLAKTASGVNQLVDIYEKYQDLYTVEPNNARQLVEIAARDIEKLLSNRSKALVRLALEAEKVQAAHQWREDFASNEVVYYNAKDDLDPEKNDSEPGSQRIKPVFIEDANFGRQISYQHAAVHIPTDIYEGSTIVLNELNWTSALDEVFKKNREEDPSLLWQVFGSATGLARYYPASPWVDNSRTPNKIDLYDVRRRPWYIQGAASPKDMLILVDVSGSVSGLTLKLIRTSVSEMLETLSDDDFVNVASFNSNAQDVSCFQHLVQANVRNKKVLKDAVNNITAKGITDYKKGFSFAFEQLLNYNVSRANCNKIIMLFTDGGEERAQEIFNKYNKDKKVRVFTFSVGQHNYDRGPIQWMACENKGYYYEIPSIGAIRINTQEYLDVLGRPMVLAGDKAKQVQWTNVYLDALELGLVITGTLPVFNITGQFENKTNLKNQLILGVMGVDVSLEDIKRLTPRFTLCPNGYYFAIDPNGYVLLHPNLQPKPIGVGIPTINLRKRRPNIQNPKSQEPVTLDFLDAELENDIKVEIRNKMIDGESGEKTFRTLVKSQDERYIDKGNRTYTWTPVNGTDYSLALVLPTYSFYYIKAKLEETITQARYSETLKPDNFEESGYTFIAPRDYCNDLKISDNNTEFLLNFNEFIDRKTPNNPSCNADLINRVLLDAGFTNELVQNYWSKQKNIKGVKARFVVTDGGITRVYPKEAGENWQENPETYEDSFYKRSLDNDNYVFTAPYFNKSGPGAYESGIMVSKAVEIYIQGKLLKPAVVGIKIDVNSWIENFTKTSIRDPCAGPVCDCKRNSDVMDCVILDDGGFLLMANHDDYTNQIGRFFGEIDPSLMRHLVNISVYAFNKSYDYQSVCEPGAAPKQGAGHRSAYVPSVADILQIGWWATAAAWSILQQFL
Sequence (P54289 947-1103 partner limits assumed): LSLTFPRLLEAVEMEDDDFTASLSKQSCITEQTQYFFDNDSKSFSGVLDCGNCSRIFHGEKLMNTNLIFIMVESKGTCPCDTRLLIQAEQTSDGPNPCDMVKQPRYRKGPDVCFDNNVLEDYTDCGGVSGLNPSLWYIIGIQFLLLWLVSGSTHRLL
Sequence (Q08289 whole entry partner): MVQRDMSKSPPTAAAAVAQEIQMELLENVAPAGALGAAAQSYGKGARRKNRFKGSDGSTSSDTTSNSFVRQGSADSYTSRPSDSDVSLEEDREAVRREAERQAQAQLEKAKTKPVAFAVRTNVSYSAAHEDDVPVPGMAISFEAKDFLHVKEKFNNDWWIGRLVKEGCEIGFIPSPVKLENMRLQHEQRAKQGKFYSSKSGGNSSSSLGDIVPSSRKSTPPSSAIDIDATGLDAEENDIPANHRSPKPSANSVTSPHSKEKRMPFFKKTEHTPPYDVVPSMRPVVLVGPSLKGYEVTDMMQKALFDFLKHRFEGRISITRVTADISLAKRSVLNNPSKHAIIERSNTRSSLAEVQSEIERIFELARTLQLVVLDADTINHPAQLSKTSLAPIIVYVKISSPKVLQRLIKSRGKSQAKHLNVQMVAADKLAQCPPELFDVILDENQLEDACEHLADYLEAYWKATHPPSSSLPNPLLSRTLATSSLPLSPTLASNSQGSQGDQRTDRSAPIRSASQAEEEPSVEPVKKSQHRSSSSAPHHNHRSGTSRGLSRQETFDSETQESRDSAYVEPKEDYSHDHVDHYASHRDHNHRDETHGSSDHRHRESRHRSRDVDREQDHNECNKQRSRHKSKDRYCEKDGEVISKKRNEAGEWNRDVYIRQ
Assay explanation: Calcium channel block, FLIPR TETRA fluorescence assay in HEK293 cells expressing L-type calcium channels
Type: cell-based
Conditions used: pH 7.2; 1 μm compound; 25 mM potassium; read-out: FLIPRIETRA Cav1.2 % Inhibition 1 μm
Answer with a number only, understood to be in %.

Please review the following examples before continuing.
CCCSC1=C(C#N)C(c2ccccc2Cl)C(C(=O)Nc2ccccc2OC)=C(C)N1 (centres unmarked); 69
CCOC(=O)C1=C(C)NC(C)=C(C(=O)OCC)C1c1ccc([N+](=O)[O-])cc1; 43
CCSC1=C(C#N)C(c2ccccc2Cl)C(C(=O)Nc2ccccc2OC)=C(C)N1 (centres unmarked); 83

So, CCOc1ccccc1C1C(C#N)=C(SC)NC(C)=C1C(=O)Nc1ccccc1 (centres unmarked) ? Its inhibition at 30 min, 1 μM was 26

Please fill in: inhibition at 30 min, 1 μM reported for COC(=O)C1=C(C)NC(C)=C(C(=O)OC)C1c1cccc2ccccc12 = 88

Recorded values, source patent US20100261765A1.
